# STUDY SYSTEM: ADDL fibril preparation (Aβ1-42 fibrils made in 10 mM hydrochloric acid)
# PROTOCOL TEXT: solution equilibrium titration; free IgG by ELISA; GraFit
pKd: −log10 of the molar value.
RECORDED METRIC: pKd

- BINDER: "murine anti-ADDL monoclonal antibody 1F4 (antibody, mouse IgG1, V domains shown) VH: DVQLVESGGGLVQPGGSRKLSCAASGFTFSSFGMHWVRQAPEKGLEWVAYISSVSSTIYYADTVKGRFTISRDNPKNTLFLQMTSLRSEDTAMYYCARSGYGSSYGYGMDYWGQGTLVTVSS VL: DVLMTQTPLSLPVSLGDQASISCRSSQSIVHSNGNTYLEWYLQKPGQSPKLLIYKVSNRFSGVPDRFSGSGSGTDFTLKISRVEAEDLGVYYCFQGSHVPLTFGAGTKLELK"
  MEASURED NUMBER: 7.90

src = patent US20110159013A1
